The values you see were collected from patent US12590062B2.

measurement_target: PD-1/PD-L1 (Homo sapiens, UniProt Q9NZQ7)
Sequence (Q9NZQ7 19-238 limits assumed): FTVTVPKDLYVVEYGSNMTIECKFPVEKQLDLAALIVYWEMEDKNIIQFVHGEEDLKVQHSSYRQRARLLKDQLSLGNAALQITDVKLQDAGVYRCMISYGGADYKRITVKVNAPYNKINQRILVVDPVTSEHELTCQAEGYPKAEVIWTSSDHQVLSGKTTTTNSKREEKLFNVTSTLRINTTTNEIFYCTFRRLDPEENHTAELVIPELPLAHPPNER
experiment_description: PD-1/PD-L1 biochemical protein-protein interaction assay (ALPHA)
condition_set: 0.3 nM His tagged PD-L1, 2.5 nM biotinylated Fc-PD-1, 60 minutes at 25° C., read-out: IC50 PD-L1-PD-1 Alpha IC50-mono PD-L1-fcP-D1
measured_endpoint: IC50

See these solved cases before continuing.
COc1nc(O[C@H]2CCc3c(-c4cccc(-c5ccc(CNC[C@@H]6CCC(=O)N6)c(OCC#N)c5)c4Cl)cccc32)c(Cl)cc1CNC[C@@H](O)CC(=O)O	0.09 nM
Cc1c(COc2nc(OCc3cncc(C#N)c3)c(CNC[C@@H](O)CC(=O)O)cc2Br)cccc1-c1cccc(-c2ccc(OCCNC[C@@H](O)CC(=O)O)cc2)c1C	0.051 nM

Let us move to another entry and its IC50.
Short answer on PD-1/PD-L1 (Homo sapiens, UniProt Q9NZQ7) for `Cc1c(COc2cc(OCc3cncc(C#N)c3)c(CNC[C@@H](O)CC(=O)O)cc2Cl)cccc1-c1cccc(-c2ccc(CN(C)C)cc2)c1Br` , IC50: 0.205 nM
